Tested on: rats
procedure-details: Heart rate and ECG intervals in rats
Format: in vivo, male Wistar rats
settings: 10 mg/kg i.p., time 30 min

{"columns": ["compound", "display-unit", "QRS"],
 "data": [
  ["CC(=O)c1ccc(OCCCCCCCCN2CCN(c3ccncc3)CC2)cc1 [KSK-73]", "ms", 22.7],
  ["c1ccc(-c2ccc(OCCCN3CCN(c4ccncc4)CC3)cc2)cc1 [KSK-61]", "ms", 21.8],
  ["O=C(c1ccccc1)c1ccc(OCCCN2CCN(c3ccncc3)CC2)cc1 [KSK-63]", "ms", 20.0],
  ["CCC(=O)c1ccc(OCCCCCCCCN2CCN(c3ccncc3)CC2)cc1 [KSK-74]", "ms", 20.0]
]}

* * *

target-entity: human ERG potassium channel (Kv11.1) (Homo sapiens)
Sequence (Q12809 whole entry): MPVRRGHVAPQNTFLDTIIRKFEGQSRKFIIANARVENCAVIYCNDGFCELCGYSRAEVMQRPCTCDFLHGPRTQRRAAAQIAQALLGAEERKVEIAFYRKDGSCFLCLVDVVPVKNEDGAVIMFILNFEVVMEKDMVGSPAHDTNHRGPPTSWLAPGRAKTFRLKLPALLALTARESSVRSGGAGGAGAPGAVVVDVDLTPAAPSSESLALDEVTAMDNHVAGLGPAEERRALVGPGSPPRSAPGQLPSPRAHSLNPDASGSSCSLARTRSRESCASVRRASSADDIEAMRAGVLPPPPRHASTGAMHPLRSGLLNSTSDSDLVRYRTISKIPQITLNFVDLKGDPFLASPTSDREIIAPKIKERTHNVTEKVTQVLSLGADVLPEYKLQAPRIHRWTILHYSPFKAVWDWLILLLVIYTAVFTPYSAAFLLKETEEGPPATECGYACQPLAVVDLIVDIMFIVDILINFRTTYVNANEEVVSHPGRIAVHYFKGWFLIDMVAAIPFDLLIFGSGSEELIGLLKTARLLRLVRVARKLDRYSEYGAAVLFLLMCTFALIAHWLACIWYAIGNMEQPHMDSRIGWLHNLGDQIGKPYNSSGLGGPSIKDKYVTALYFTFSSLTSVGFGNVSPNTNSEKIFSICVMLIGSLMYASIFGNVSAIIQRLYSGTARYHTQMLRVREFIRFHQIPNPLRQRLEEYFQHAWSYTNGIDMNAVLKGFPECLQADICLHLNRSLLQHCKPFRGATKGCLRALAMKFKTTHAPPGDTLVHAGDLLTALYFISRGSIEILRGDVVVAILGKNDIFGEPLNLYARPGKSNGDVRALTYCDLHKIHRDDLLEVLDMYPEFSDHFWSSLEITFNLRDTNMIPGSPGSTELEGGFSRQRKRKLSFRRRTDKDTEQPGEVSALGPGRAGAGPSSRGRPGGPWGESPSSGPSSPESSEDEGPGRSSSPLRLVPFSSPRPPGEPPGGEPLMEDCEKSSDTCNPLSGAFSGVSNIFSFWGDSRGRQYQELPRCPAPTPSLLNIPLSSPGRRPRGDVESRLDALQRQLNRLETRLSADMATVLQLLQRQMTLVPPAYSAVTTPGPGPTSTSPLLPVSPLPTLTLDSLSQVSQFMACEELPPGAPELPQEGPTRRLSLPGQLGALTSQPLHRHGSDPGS
procedure-details: Whole-cell automated patch clamp (QPatch16X), inhibition of hERG currents
settings: CHO cells stably expressing human ERG, whole-cell, mean of three experiments; read-out: Mean IC50 ± SEM, inhibition of hERG currents
pIC50: −log10 of the molar value.
measure-name: pIC50

{"columns": ["molecule", "measure-name", "experimental-result"],
 "data": [
  ["CC(=O)c1ccc(OCCCCCCCCN2CCN(c3ccncc3)CC2)cc1 [KSK-73]", "pIC50", 5.68],
  ["CCC(=O)c1ccc(OCCCCCCCCN2CCN(c3ccncc3)CC2)cc1 [KSK-74]", "pIC50", 5.47],
  ["O=C(c1ccccc1)c1ccc(OCCCN2CCN(c3ccncc3)CC2)cc1 [KSK-63]", "pIC50", 6.24],
  ["c1ccc(-c2ccc(OCCCN3CCN(c4ccncc4)CC3)cc2)cc1 [KSK-61]", "pIC50", 5.58]
]}

* * *

The following molecules are listed with their measured QRS values.
Tested on: rats
procedure-details: Heart rate and ECG intervals in rats
Assay type: in vivo, male Wistar rats
settings: 10 mg/kg i.p., time 15 min

{"columns": ["structure-as-smiles", "QRS"],
 "data": [
  ["CCC(=O)c1ccc(OCCCCCCCCN2CCN(c3ccncc3)CC2)cc1", "20.0 ± 0.0 ms"],
  ["O=C(c1ccccc1)c1ccc(OCCCN2CCN(c3ccncc3)CC2)cc1", "20.0 ± 0.0 ms"],
  ["CC(=O)c1ccc(OCCCCCCCCN2CCN(c3ccncc3)CC2)cc1", "22.7 ± 5.4 ms"],
  ["c1ccc(-c2ccc(OCCCN3CCN(c4ccncc4)CC3)cc2)cc1", "21.5 ± 0.5 ms"]
]}

* * *

Known QRS of a selection of compounds
Test system: rats
procedure-details: Heart rate and ECG intervals in rats
Assay type: in vivo, male Wistar rats
settings: 10 mg/kg i.p., time 60 min

{"columns": ["structure-as-smiles", "QRS"],
 "data": [
  ["c1ccc(-c2ccc(OCCCN3CCN(c4ccncc4)CC3)cc2)cc1", "21.8 ± 0.4 ms"],
  ["O=C(c1ccccc1)c1ccc(OCCCN2CCN(c3ccncc3)CC2)cc1", "20.0 ± 0.0 ms"],
  ["CC(=O)c1ccc(OCCCCCCCCN2CCN(c3ccncc3)CC2)cc1", "20.0 ± 0.0 ms"],
  ["CCC(=O)c1ccc(OCCCCCCCCN2CCN(c3ccncc3)CC2)cc1", "20.0 ± 0.0 ms"]
]}

* * *

Each entry below lists one item and its recorded Heart rate value.
Tested on: rats
procedure-details: Heart rate and ECG intervals in rats
Type: in vivo, male Wistar rats
settings: 10 mg/kg i.p., time 60 min
measure-name: Heart rate

{"columns": ["structure-as-smiles", "measure-name", "experimental-result"],
 "data": [
  ["CCC(=O)c1ccc(OCCCCCCCCN2CCN(c3ccncc3)CC2)cc1", "Heart rate", "370.8 ± 23.9 beats/min"],
  ["O=C(c1ccccc1)c1ccc(OCCCN2CCN(c3ccncc3)CC2)cc1", "Heart rate", "344.3 ± 30.8 beats/min"],
  ["c1ccc(-c2ccc(OCCCN3CCN(c4ccncc4)CC3)cc2)cc1", "Heart rate", "360.4 ± 20.3 beats/min"],
  ["CC(=O)c1ccc(OCCCCCCCCN2CCN(c3ccncc3)CC2)cc1", "Heart rate", "377.0 ± 26.4 beats/min"]
]}
